These entries and their values trace back to patent US4032654A.

Assay comment: physchem
Experimental setup: 60/40 ch3oh/h2o, Solubility, Methomyl alone in solvent, alone; -6° C.
Observed property: solubility (mg/mL)
Field: numeric (mg/mL). Do not append units.

Query string: What value of solubility has been recorded for this entry: CNC(=O)ON=C(C)SC
Result string: 155

###

Assay comment: physchem
Experimental setup: 90/10 ch3oh/h2o, Solubility, both actives in solvent: Methomyl, with oxamyl, 2:1 wt.; 90/10 CH3OH/H2O; -6° C.
Observed property: solubility (mg/mL)
Field: numeric (mg/mL). Do not append units.

Query string: What value of solubility has been recorded for this entry: CNC(=O)ON=C(C)SC
Result string: 737
